target: T1, purified human monomeric 4-1BB (human, UniProt Q07011 24-186); experiment: SPR, mean n=3;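 also: antibodies captured on anti-human Fc chip, 4-1BB injected as five-point two-fold series from 40 nM by single-cycle kinetics at 25 °C, sensorgrams fitted to 1:1 Langmuir model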
T1 construct: the assay used the 4-1BB part released by Factor Xa with the Fc removed; also called h4-1BB; human 4-1BB
T1 sequence (Q07011 other isoform, or with tags, fused parts or gaps limits assumed): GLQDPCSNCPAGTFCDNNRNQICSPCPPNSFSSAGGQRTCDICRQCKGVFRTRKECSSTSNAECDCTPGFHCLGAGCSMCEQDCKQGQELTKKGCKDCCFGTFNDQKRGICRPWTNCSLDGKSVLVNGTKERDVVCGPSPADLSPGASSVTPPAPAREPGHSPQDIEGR
Give measured Kd for each item. Keep answers brief.
Answers are plain numbers, in nM.

Here is how some binders turned out for Kd.
Entry v28690 (antibody, human IgG1, kappa, L234A L235A, V domains shown, also called humanized 1G1 H2L4) VH: EVQLVESGGGLVQPGGSLRLSCAASGFTFSEFGMHWVRQAPGKGLEWVAYISSGGSTIYYADSVKGRFTISRDNAKNSLYLQMNSLRAEDTAVYYCARDWVDYWGQGTLLTVSS VL: EIVMTQSPATLSLSPGERVTLSCKASENVGSYVSWYQQKPGQAPRLLIYGASNRYTGVPARFSGSGSGTDFTLTISSVEPEDLAVYYCGQSYSYPLTFGGGTKLELKR , Kd reported as 34.4

Entry v28692 (antibody, human IgG1, kappa, L234A L235A, V domains shown, also called humanized 1G1 H3L2) VH: EVQLVESGGGLVQPGGSLRLSCAASGFTFSEFGMHWVRQAPGKGLEWVAYISSGGSTIYYADSVKGRFTISRDNAKNSLYLQMNSLRAEDTAMYYCARDWVDYWGQGTLLTVSS VL: EIVLTQSPATLSLSPGERATLSCKASENVGSYVSWYQQKPGQAPRLLIYGASNRYTGVPARFSGSGSGTDFTLTISSLEPEDFAVYYCGQSYSYPLTFGGGTKVEIKR , Kd reported as 46.4

We next turn to a different binder, shown below.
Entry v28684 (antibody, human IgG1, kappa, L234A L235A, V domains shown, also called humanized 1G1 H1L2) VH: EVQLVESGGGLVQPGGSLRLSCAASGFTFSEFGMHWVRQAPGKGLEWVSYISSGGSTIYYADSVKGRFTISRDNAKNSLYLQMNSLRAEDTAVYYCARDWVDYWGQGTLVTVSS VL: EIVLTQSPATLSLSPGERATLSCKASENVGSYVSWYQQKPGQAPRLLIYGASNRYTGVPARFSGSGSGTDFTLTISSLEPEDFAVYYCGQSYSYPLTFGGGTKVEIKR , Kd reported as 38.5
